Taken from ChEMBL document CHEMBL1130513.

Species: Rattus norvegicus
Assay notes: In vitro inhibitory effect on D-Galactosamine induced cytotoxicity in primary cultured rat hepatocytes at 1 ug/mL
Assay type: functional
Test parameters: Hepatocyte
Measurement name: inhibition at 1 µg/mL (%)
Field format: number, assumed %, no unit text.

Item: C[C@H]1O[C@@H](O[C@H]2CC[C@@]3(C)C(CC[C@]4(C)C3C=C[C@]35OC[C@@]6(CCC(C)(C)CC63)[C@@H](O)C[C@]54C)[C@]2(C)CO)[C@H](O)[C@@H](O[C@@H]2O[C@H](CO)[C@@H](O)[C@H](O)[C@H]2O)[C@H]1O (some centres not stated) | inhibition at 1 µg/mL: -7.1

Item: C[C@H]1O[C@@H](O[C@H]2CC[C@@]3(C)C(CC[C@]4(C)C3C=C[C@]35OC[C@@]6(CCC(C)(C)CC63)[C@@H](O)C[C@]54C)[C@]2(C)CO)[C@H](O)[C@@H](O[C@@H]2O[C@H](CO)[C@@H](O)[C@H](O)[C@H]2O[C@@H]2O[C@H](CO)[C@@H](O)[C@H](O)[C@H]2O)[C@H]1O (some centres not stated) [BUPLEUROSIDE I] | inhibition at 1 µg/mL: -6.5

###

Assignment: determine reported inhibition at 1 µg/mL for the given compounds.
Organism: Rattus norvegicus
Assay notes: In vitro inhibitory effect on D-Galactosamine induced cytotoxicity in primary cultured rat hepatocytes at 1 ug/mL
Type: functional
Test parameters: Hepatocyte
Please make sure the unit comes right after the number.

Form field inhibition at 1 µg/mL, entry CC1(C)CC[C@]2(C(=O)O)CC[C@]3(C)C(=CCC4[C@@]5(C)CC[C@H](O[C@@H]6O[C@H](CO)[C@H](O)[C@H](O[C@@H]7OC[C@@H](O)[C@@H](O)[C@@H]7O[C@@H]7O[C@H](CO)[C@@H](O)[C@H](O)[C@H]7O)[C@H]6O)C(C)(C)C5CC[C@]43C)C2C1 (some centres not stated) [BUPLEUROSIDE VII1] : 0.1%

Briefly, inhibition at 1 µg/mL measured for C[C@H]1O[C@@H](OC2CC[C@@]3(C)C(CC[C@]4(C)C3C=C[C@]35OC[C@@]6(CCC(C)(C)CC63)[C@@H](O)C[C@]54C)C2(C)C)[C@H](O)[C@@H](O[C@@H]2O[C@H](CO)[C@@H](O)[C@H](O)[C@H]2O)[C@H]1O (some centres not stated) : -17.1%

###

Species on record: Rattus norvegicus
Assay notes: In vitro inhibitory effect on D-Galactosamine induced cytotoxicity in primary cultured rat hepatocytes at 3 ug/mL
Format: functional
Test parameters: Hepatocyte
Measurement name: inhibition at 3 µg/mL (%)
// note: answer is a bare numeric in %

Reported inhibition at 3 µg/mL ( C[C@H]1O[C@@H](OC2CC[C@@]3(C)C(CC[C@]4(C)C3C=C[C@]35OC[C@@]6(CCC(C)(C)CC63)[C@@H](O)C[C@]54C)C2(C)C)[C@H](O)[C@@H](O[C@@H]2O[C@H](CO)[C@@H](O)[C@H](O)[C@H]2O)[C@H]1O (some centres undefined) ) = -26.9

Lab note: C[C@H]1O[C@@H](O[C@H]2CC[C@@]3(C)C(CC[C@]4(C)C3[C@H](O)CC3C5=CC(C)(C)CC[C@]5(CO)[C@@H](O)C[C@]34C)[C@]2(C)CO)[C@H](O)[C@@H](O[C@@H]2O[C@H](CO)[C@@H](O)[C@H](O)[C@H]2O)[C@H]1O (some centres undefined) gave inhibition at 3 µg/mL of 59.4

Documented inhibition at 3 µg/mL of C[C@@H]1O[C@@H](O[C@@H]2[C@H](O)[C@@H](O)[C@H](O[C@H]3CC[C@@]4(C)C(CC[C@]5(C)C4C=C[C@]46OC[C@@]7(CCC(C)(C)CC74)[C@@H](O)C[C@]65C)C3(C)C)O[C@@H]2CO[C@@H]2O[C@H](CO)[C@@H](O)[C@H](O)[C@H]2O)[C@H](O)[C@H](O)[C@H]1O (some centres undefined) : -1.9

Documented inhibition at 3 µg/mL of C[C@@H]1O[C@@H](O[C@@H]2[C@H](O)[C@@H](O)[C@H](OC3CC[C@@]4(C)C(CC[C@]5(C)[C@@H]4CC=C4C6CC(C)(C)CC[C@]6(CO)[C@@H](O)C[C@]45C)C3(C)C)O[C@@H]2CO[C@@H]2O[C@H](CO)[C@@H](O)[C@H](O)[C@H]2O)[C@H](O)[C@H](O)[C@H]1O (some centres undefined) : -2.9

Entry under test: C[C@H]1O[C@@H](O[C@H]2CC[C@@]3(C)C(CC[C@]4(C)C3C(=O)C=C3C5CC(C)(C)CC[C@]5(CO)[C@@H](O)C[C@]34C)[C@]2(C)CO)[C@H](O)[C@@H](O[C@@H]2O[C@H](CO)[C@@H](O)[C@H](O)[C@H]2O)[C@H]1O (some centres undefined) . Its inhibition at 3 µg/mL was 44.5

So for C[C@@H]1O[C@@H](O[C@@H]2[C@H](O)[C@@H](O)[C@H](O[C@H]3CC[C@@]4(C)C(CC[C@]5(C)C4CC=C4C6CC(C)(C)CC[C@]6(CO)CC[C@]45C)C3(C)C)O[C@@H]2CO[C@@H]2O[C@H](CO)[C@@H](O)[C@H](O)[C@H]2O)[C@H](O)[C@H](O)[C@H]1O (some centres undefined) [BUPLEUROSIDE XI] , the logged inhibition at 3 µg/mL turned out to be -1

The recorded inhibition at 3 µg/mL for C[C@H]1O[C@@H](OC2CC[C@@]3(C)C(CC[C@]4(C)C3C=CC3=C5CC(C)(C)CC[C@]5(CO)[C@H](O)C[C@]34C)[C@]2(C)CO)[C@H](O)[C@@H](O[C@@H]2O[C@H](CO)[C@@H](O)[C@H](O)[C@H]2O)[C@H]1O (some centres undefined) is 5.3

Recorded result, C[C@@H]1O[C@@H](O[C@@H]2[C@H](O)[C@@H](O)[C@H](O[C@H]3CC[C@@]4(C)C(CC[C@]5(C)C4C(=O)C=C4C6CC(C)(C)CC[C@]6(CO)[C@@H](O)C[C@]45C)C3(C)C)O[C@@H]2CO[C@@H]2O[C@H](CO)[C@@H](O)[C@H](O)[C@H]2O)[C@H](O)[C@H](O)[C@H]1O (some centres undefined) [BUPLEUROSIDE VII] , inhibition at 3 µg/mL: 4.3

// recorded inhibition at 3 µg/mL for C[C@H]1O[C@@H](OC2CC[C@@]3(C)C(CC[C@]4(C)C3C=CC3=C5C[C@](C)(C(=O)O)CC[C@]5(CO)[C@H](O)C[C@]34C)[C@]2(C)CO)[C@H](O)[C@@H](O[C@@H]2O[C@H](CO)[C@@H](O)[C@H](O)[C@H]2O)[C@H]1O (some centres undefined) [BUPLEUROSIDE V] : 1.4

compound C[C@@H]1O[C@@H](O[C@H]2[C@@H](O)[C@@H](CO[C@@H]3O[C@H](CO)[C@@H](O)[C@H](O)[C@H]3O)O[C@@H](OC3CC[C@@]4(C)C(CC[C@]5(C)C4C=CC4=C6CC(C)(C)CC[C@]6(CO)[C@H](O)C[C@]45C)[C@]3(C)CO)[C@@H]2O)[C@H](O)[C@H](O)[C@H]1O (some centres undefined) [BUPLEUROSIDE X] , inhibition at 3 µg/mL observed: 4.6

// sample CO[C@@H]1C=C2C3CC(C)(C)CC[C@]3(CO)[C@@H](O)C[C@@]2(C)[C@]2(C)CCC3C(C)(C)C(O[C@@H]4O[C@H](CO[C@@H]5O[C@H](CO)[C@@H](O)[C@H](O)[C@H]5O)[C@H](O[C@@H]5O[C@@H](C)[C@H](O)[C@@H](O)[C@H]5O)[C@H](O)[C@H]4O)CC[C@]3(C)[C@@H]12 (some centres undefined) , its inhibition at 3 µg/mL was 4.5

Reported inhibition at 3 µg/mL of C[C@H]1O[C@@H](O[C@H]2CC[C@@]3(C)C(CC[C@]4(C)C3C=C[C@]35OC[C@@]6(CCC(C)(C)CC63)[C@@H](O)C[C@]54C)[C@]2(C)CO)[C@H](O)[C@@H](O[C@@H]2O[C@H](CO)[C@@H](O)[C@H](O)[C@H]2O)[C@H]1O (some centres undefined) : -11.6

Lab note: CO[C@@H]1C=C2C3CC(C)(C)CC[C@]3(CO)[C@@H](O)C[C@@]2(C)[C@]2(C)CCC3[C@](C)(CCC(O[C@@H]4O[C@H](CO[C@@H]5O[C@H](CO)[C@@H](O)[C@H](O)[C@H]5O)[C@H](O[C@@H]5O[C@@H](C)[C@H](O)[C@@H](O)[C@H]5O)[C@H](O)[C@H]4O)[C@@]3(C)CO)C12 (some centres undefined) gave inhibition at 3 µg/mL of 3.5

Looking up C[C@H]1O[C@@H](OC2CC[C@@]3(C)C(CC[C@]4(C)C3C=CC3=C5CC(C)(C)CC[C@]5(CO)[C@@H](O)C[C@]34C)[C@]2(C)CO)[C@H](O)[C@@H](O[C@@H]2O[C@H](CO)[C@@H](O)[C@H](O)[C@H]2O)[C@H]1O (some centres undefined) , I see its inhibition at 3 µg/mL listed as 4.3
